Please respond with reported log10(Kd) for every item in the list.
targetDesc: human insulin receptor (HIR) (human, UniProt P06213 28-1382, limits assumed)
assayProcedure: 125I-insulin competition, solubilised HIR
Non-standard residues stand in square brackets, D forms with d. No end group written: not given here.
Values reflect log10 of reported Kd (nM).

INPUT: Specify log10(Kd) for HLCVLEELFWGASLFGYCSGGSLDESFYDWFERQL [S521] and stop.
OUTPUT: 1.43

INPUT: Specify log10(Kd) for SLEHEWAQVECEVYGRGCPSGSLDESFYDWFERQLG [S537] and stop.
OUTPUT: -1.36

INPUT: Specify log10(Kd) for SLEEEWAQVECEVYGRGCPSGGSGGSGLLDESFYHWFDRQLR [S510] and stop.
OUTPUT: -1.21

INPUT: Specify log10(Kd) for SLEEEWAQIECEVYGRGCPSESFYDWFERQL (not fully specified; N-terminal acetyl) [S597] and stop.
OUTPUT: -2.07

INPUT: Specify log10(Kd) for SLELEWAQVECEVYGRGCPSGSLDESFYDWFERQLG [S539] and stop.
OUTPUT: -1.01

INPUT: Specify log10(Kd) for SLEEEWAQVECEVYGRGCPSGSLDESFYH[dW]FERQLG (cysteine pairing not given here) [S542] and stop.
OUTPUT: -1.57
